- Test system: Plasmodium falciparum
- ASSAY_INFO: Antiplasmodial activity against chloroquine and pyrimethamine resistant Plasmodium falciparum K1 assessed as reduction in [3H]-hypoxanthine incorporation incubated for 48 hrs by liquid scintillation counting method
- Format: functional, organism-based
MEASUREMENT_NAME: IC50 (nM)
State just the number; it will be interpreted in nM.

Example entries begin here.
C[C@H]1[C@H](OC(=O)CCC(=O)NCCCN(CCCCCCN(CCCNC(=O)CCC(=O)O[C@@H]2O[C@@H]3O[C@@]4(C)CC[C@H]5[C@H](C)CC[C@@H]([C@H]2C)[C@@]35OO4)C(=O)CCC(=O)O[C@@H]2O[C@@H]3O[C@@]4(C)CC[C@H]5[C@H](C)CC[C@@H]([C@H]2C)[C@@]35OO4)C(=O)CCC(=O)O[C@@H]2O[C@@H]3O[C@@]4(C)CC[C@H]5[C@H](C)CC[C@@H]([C@H]2C)[C@@]35OO4)O[C@@H]2O[C@@]3(C)CC[C@H]4[C@H](C)CC[C@@H]1[C@@]24OO3 ... 0.6
C[C@H]1[C@H](OC(=O)CCC(=O)NCCCN(CCCCCCCCN(CCCNC(=O)CCC(=O)O[C@@H]2O[C@@H]3O[C@@]4(C)CC[C@H]5[C@H](C)CC[C@@H]([C@H]2C)[C@@]35OO4)C(=O)OC(C)(C)C)C(=O)OC(C)(C)C)O[C@@H]2O[C@@]3(C)CC[C@H]4[C@H](C)CC[C@@H]1[C@@]24OO3 ... 0.8
CC(C)(C)OC(=O)N(CCCCCCCCCCN(CCCNC(=O)C1CCC2(CC1)OOC1(O2)C2CC3CC(C2)CC1C3)C(=O)OC(C)(C)C)CCCNC(=O)C1CCC2(CC1)OOC1(O2)C2CC3CC(C2)CC1C3 (centres undefined) ... 60

Consider the additional compound presented here.
Can you look up the measured IC50 of C[C@H]1[C@H](OC(=O)CCC(=O)NCCCN(CCCCCCCCN(CCCNC(=O)CCC(=O)O[C@@H]2O[C@@H]3O[C@@]4(C)CC[C@H]5[C@H](C)CC[C@@H]([C@H]2C)[C@@]35OO4)C(=O)CCC(=O)O[C@@H]2O[C@@H]3O[C@@]4(C)CC[C@H]5[C@H](C)CC[C@@H]([C@H]2C)[C@@]35OO4)C(=O)CCC(=O)O[C@@H]2O[C@@H]3O[C@@]4(C)CC[C@H]5[C@H](C)CC[C@@H]([C@H]2C)[C@@]35OO4)O[C@@H]2O[C@@]3(C)CC[C@H]4[C@H](C)CC[C@@H]1[C@@]24OO3 for me?
0.6

These entries and their values trace back to ChEMBL document CHEMBL4190368.
